# Tested on: Helicobacter pylori ATCC 43504
# testMethodNotes: Agar plate dilution method, MIC
# Type: cell-based
# runParameters: ATCC43504, 96 h; Helicobacter pylori ATCC 43504, BHI agar with 7% horse blood, 4 days
measuredQuantity: MIC (µg/mL)

O=C1c2ccccc2C(=O)N1N1C(=O)c2ccc3c4c(ccc(c24)C1=O)C(=O)N(N1C(=O)c2ccccc2C1=O)C3=O
12.5
CC(=O)OCCN1C(=O)c2ccc3c4c(ccc(c24)C1=O)C(=O)N(CCOC(C)=O)C3=O
0.31

[a] CC[C@H]1OC(=O)[C@H](C)[C@@H](O[C@H]2C[C@@](C)(OC)[C@@H](O)[C@H](C)O2)[C@H](C)[C@@H](O[C@@H]2O[C@H](C)C[C@H](N(C)C)[C@H]2O)[C@](C)(OC)C[C@@H](C)C(=O)[C@H](C)[C@@H](O)[C@]1(C)O
[b] CN(C)CCN1C(=O)c2ccc3c4c(ccc(c24)C1=O)C(=O)N(CCN(C)C)C3=O
Parameter check: reported MIC is higher for which label, a or b ? Refer to your chosen item by its label in the answer.
b

Data origin: patent US20040116493A1
